For each record, write down the corresponding Ki.
Biological target: LHRH receptors (Rattus norvegicus, UniProt P30969)
Construct: Pituitary membranes containing LHRH receptors are prepared in batches from quick-frozen rat pituitaries; tissue Hilltop Labs; host or cells: rat pituitary membranes
Sequence (P30969 whole entry): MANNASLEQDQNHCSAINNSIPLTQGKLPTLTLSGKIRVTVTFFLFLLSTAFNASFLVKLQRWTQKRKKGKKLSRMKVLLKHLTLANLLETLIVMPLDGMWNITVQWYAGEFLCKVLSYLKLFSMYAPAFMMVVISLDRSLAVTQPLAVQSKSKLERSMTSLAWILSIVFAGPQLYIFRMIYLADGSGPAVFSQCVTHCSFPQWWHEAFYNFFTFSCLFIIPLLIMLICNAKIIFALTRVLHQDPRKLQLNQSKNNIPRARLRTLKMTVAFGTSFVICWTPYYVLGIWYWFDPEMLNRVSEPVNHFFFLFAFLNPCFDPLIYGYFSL
Test: Receptor Binding (radioligand receptor binding assay)
Settings: table 3; rat pituitary membranes, radioiodinated [D-Leu^6 -des Gly^10 ]-LHRH ethyl amide 50 pM, 2 hours at 4° C.; read-out: Receptor Binding pkI (converted)
Numbered stars: 1 amine (or outer) side, 2 acyl side, 3 side chain; on linkers, the order of the positions; unused ones are H or OH. Square brackets hold non-standard residues; d marks the D form. Peptide text beside a SMILES is read from it. * marks the point of attachment. Propanoyl(3-indol-3-yl) = O=C(CCc1c[nH]c2ccccc12)*; dOrn = NCCC[C@@H](N)C(=O)O; NHcHex = C1CCC(N*)CC1; CO = O=C([*:1])[*:2]
Answers are plain numbers, in pM.

{"COMPOUND": "CCNC(=O)[C@@H]1CCCN1C(=O)[C@H](CCCNC(=N)N)NC(=O)[C@H](CC(C)C)NC(=O)[C@@H](CCCN)NC(=O)[C@H](Cc1ccc(O)cc1)NC(=O)[C@H](CO)NC(=O)CCc1c[nH]c2ccccc12 [Compound 49] ({Propanoyl(3-indol-3-yl)}-SY[dOrn]LRP-NHEt)", "Ki [pM]": 55000}
{"COMPOUND": "CCNC(=O)[C@@H]1CCCN1C(=O)[C@H](CCCNC(=N)N)NC(=O)[C@H](CC(C)C)NC(=O)[C@@H](Cc1c[nH]c2ccccc12)NC(=O)[C@H](Cc1ccc(O)cc1)NC(=O)[C@H](CO)NC(=O)C(Cc1cccc2ccccc12)NC(C)=O (single isomer, unassigned) [Compound 82]", "Ki [pM]": 295}

Kindly review the next compound as well.
Q: Using the record for CCNC(=O)[C@@H]1CCCN1C(=O)[C@H](CCCNC(=N)N)NC(=O)[C@H](CC(C)C)NC(=O)[C@@H](Cc1c[nH]c2ccccc12)NC(=O)[C@H](Cc1ccc(O)cc1)NC(=O)[C@H](CO)NC(=O)[C@H](Cc1c[nH]c2ccccc12)NC(=O)[C@H](Cc1ccccc1)NC(=O)NC1CCCCC1 [Compound 125] ({NHcHex-CO}-FWSY[dW]LRP-NHEt) , report its Ki.
A: 251

* * *

For each record, write down the corresponding AUC (24 hr. after 30 ug/kg).
Tested on: male castrate rats
Assay: In vivo LH Inhibiton
Parameters: species or system rat
Conditions: table 4, 30 ug/kg subcutaneously by bolus injection, AUC of log (LHt /LHi)
Square brackets hold non-standard residues; d marks the D form. Peptide text beside a SMILES is read from it. * marks the point of attachment. Propanoyl(3-(4-F-phenyl)) = O=C(CCc1ccc(F)cc1)*; d1Nal = N[C@H](Cc1cccc2ccccc12)C(=O)O; Lys(iPr) = CC(C)NCCCC[C@H](N)C(=O)O; NMeY = CN[C@@H](Cc1ccc(O)cc1)C(=O)O; dBta = N[C@H](Cc1csc2ccccc12)C(=O)O; Nicotinoyl = O=C(c1cccnc1)*
Answers are plain numbers.

{"COMPOUND": "CC(C)C[C@H](NC(=O)[C@@H](CCCCN)NC(=O)[C@H](Cc1ccc(O)cc1)N(C)C(=O)[C@H](CO)NC(=O)[C@@H](Cc1csc2ccccc12)NC(=O)CCc1ccc(F)cc1)C(=O)N[C@@H](CCCNC(=N)N)C(=O)N1CCC[C@H]1C(=O)N[C@H](C)C(N)=O [Compound 177] ({Propanoyl(3-(4-F-phenyl))}-[dBta]S[NMeY][dK]LRP[dA]-NH2)", "TARGET DESC": "male castrate rats", "QUANTITY NAME": "AUC (24 hr. after 30 ug/kg)", "OBSERVED MEASUREMENT": -938}

Q: Observed AUC (24 hr. after 30 ug/kg) on male castrate rats for CC(C)C[C@H](NC(=O)[C@@H](CCCCNC(=O)c1cccnc1)NC(=O)[C@H](Cc1ccc(O)cc1)N(C)C(=O)[C@H](CO)NC(=O)[C@@H](Cc1cccc2ccccc12)NC(=O)CCc1ccc(F)cc1)C(=O)N[C@@H](CCCCNC(C)C)C(=O)N1CCC[C@H]1C(=O)N[C@H](C)C(N)=O [Compound 197] ({Propanoyl(3-(4-F-phenyl))}-[d1Nal]S[NMeY][dK](Nicotinoyl)L[Lys(iPr)]P[dA]-NH2) , please.
A: -688
